Tested on: HBV AD38 viral particles in HepG2 cell line overexpressing NTCP
measurement_description: HBV DNA Quantification Assay
Format: cell-based
condition_info: Hepatitis B virus, HepG2, 120 h, HBV-infected HepG2-NTCP cells, 5 days incubation, HBV DNA in culture supernatant (QuantiGene 2.0); geometric mean of a minimum of four determinations
Recorded measurements of EC50, one per entry
property_name: EC50

* Cc1c(C(=O)C(=O)NC2(CNC3(C)CS(=O)(=O)C3)CC(F)(F)C2)c2n(c1C(=O)Nc1ccc(F)c(Cl)c1)CCC2 | 72 nM
* CC(C)(C)NC(=O)C(=O)c1c(Cl)c(C(=O)Nc2ccc(F)c(C#N)c2)n2c1CCC2 | 27.1 nM
* Cc1c(C(=O)C(=O)NC2(c3c[nH]nn3)CC(F)(F)C2)c2n(c1C(=O)Nc1ccc(F)c(C#N)c1)CCC2 | 5.6 nM
* Cc1c(C(=O)C(=O)NC2(c3c[nH]nn3)CC(F)(F)C2)c2n(c1C(=O)Nc1cc(F)c(F)c(F)c1)[C@@H]1C[C@@H]1C2 | 1.9 nM

###

Recorded measurements of pEC50, one per entry
Test system: HBV AD38 viral particles in HepG2 cell line overexpressing NTCP
measurement_description: HBV DNA Quantification Assay
Assay type: cell-based
condition_info: Hepatitis B virus, HepG2, 120 h, HBV-infected HepG2-NTCP cells, 5 days incubation, HBV DNA in culture supernatant (QuantiGene 2.0); geometric mean of a minimum of four determinations
pEC50: −log10 of the molar value.
property_name: pEC50

- Cc1c(C(=O)C(=O)NC2(c3c[nH]nn3)CC2)c2n(c1C(=O)Nc1ccc(F)c(F)c1F)CCC2 [Example 111]: 6.81
- Cc1c(C(=O)C(=O)NC2(c3c[nH]nn3)COC2)c2n(c1C(=O)Nc1ccc(F)c(Cl)c1)CCC2 [Example 88]: 8.06
- Cc1c(C(=O)C(=O)NC2(c3nncs3)CC2)c2n(c1C(=O)Nc1cc(F)c(F)c(F)c1)[C@@H]1C[C@@H]1C2 [Example 57]: 8.00
- Cc1c(C(=O)C(=O)NC2(c3c[nH]nn3)CC2)c2n(c1C(=O)Nc1cccc(Cl)c1F)CCC2 [Example 107]: 6.84
- Cc1c(C(=O)C(=O)NC2(c3nncs3)CC2)c2n(c1C(=O)Nc1ccc(F)c(Cl)c1)[C@@H]1C[C@@H]1C2 [Example 54]: 8.11
- Cc1c(C(=O)C(=O)NC23CC(C(N)=O)(C2)C3)c2n(c1C(=O)Nc1ccc(F)c(Cl)c1)CCC2 [Example 106]: 6.91
- Cc1c(C(=O)C(=O)NC2(c3cnn[nH]3)CC(F)(F)C2)c2n(c1C(=O)Nc1ccc(F)cc1)[C@@H]1C[C@@H]1C2 [Example 100]: 8.43
- Cc1c(C(=O)C(=O)NC2(c3c[nH]nn3)CC(F)(F)C2)c2n(c1C(=O)Nc1ccc(F)c(C#N)c1)[C@@H]1C[C@@H]1C2 [Example 41]: 8.12
- Cc1c(C(=O)C(=O)NC2(c3ccccc3)CC2)c2n(c1C(=O)Nc1cc(F)c(F)c(F)c1)CCC2 [Example 67]: 8.19
- Cc1c(C(=O)C(=O)NC2(C(F)(F)F)COC2)c2n(c1C(=O)Nc1ccc(F)c(Cl)c1)CCC2 [Example 7]: 8.24
- Cc1c(C(=O)C(=O)NC2(c3c[nH]nn3)CC2)c2n(c1C(=O)Nc1cc(Cl)cc(Cl)c1)CCC2 [Example 102]: 6.95
- CNC(=O)[C@@H](NC(=O)C(=O)c1c(C)c(C(=O)Nc2ccc(F)c(Cl)c2)n2c1CCC2)C(C)C [Example 128]: 6.77
- Cc1c(C(=O)C(=O)NC2(c3c[nH]nn3)CC(F)(F)C2)c2n(c1C(=O)Nc1ccc(F)cc1)C[C@H](F)C2 [Example 48]: 8.19
- Cc1c(C(=O)C(=O)NC2(C(=O)N3CCC34COC4)CC(F)(F)C2)c2n(c1C(=O)Nc1ccc(F)c(Cl)c1)CCC2 [Example 11]: 8.11

Source: patent US10328053B2
